System: 192522-019-R-J2-PDC complex tumor spheroid viability
Assay: Anticancer human tumor 192522-019-R-J2-PDC patient-derived colon adenocarcinoma cell line growth inhibition [POLQ]
Conditions: second compound 1 µM; first compound 0.0316 µM; stronger effect = lower value
property.label: viability, T/C (%)
Your answer is read as %, so omit the unit and give the number.

Query :: Reported viability, T/C for 192522-019-R-J2-PDC complex tumor spheroid viability, given O=C(c1cc(Cc2n[nH]c(=O)c3ccccc23)ccc1F)N1CCN(C(=O)C2CC2)CC1 + Nc1ccc(C#CCN(C(=O)Cc2ncc(C(F)(F)F)cc2C(F)(F)F)c2ccc(F)cc2)nn1 ?
Result :: 110

* * *

Documented viability, T/C across a set of compounds
System: 192522-019-R-J2-PDC complex tumor spheroid viability
Assay: Anticancer human tumor 192522-019-R-J2-PDC cell line growth inhibition [POLQ];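 further: spheroids exposed to drugs for seven days before reading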;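 on viability, T/C: 100% = DMSO vehicle control viability in luminescence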
Settings: second compound 0.0316 µM; first compound 0.316 µM; stronger effect = lower value
Your answer is read as %, so omit the unit and give the number.

Known results for compounds:
compound="COc1cc(C2c3cc4c(cc3C(OC3OC5COC(C)OC5C(O)C3O)C3COC(=O)C23)OCO4)cc(OC)c1O (stereo unspecified) + Cc1cccc(N(C)C(=O)C2C(O)CCN2c2nc(C)cc(C(F)(F)F)c2C#N)c1" property_label="viability, T/C" recorded_value=103
compound="Nc1ccn(C2OC(CO)C(O)C2(F)F)c(=O)n1 (stereo unspecified) + Cc1cccc(N(C)C(=O)C2C(O)CCN2c2nc(C)cc(C(F)(F)F)c2C#N)c1" property_label="viability, T/C" recorded_value=81.8
compound="O=C(c1cc(Cc2n[nH]c(=O)c3ccccc23)ccc1F)N1CCN(C(=O)C2CC2)CC1 + Cc1cccc(N(C)C(=O)C2C(O)CCN2c2nc(C)cc(C(F)(F)F)c2C#N)c1" property_label="viability, T/C" recorded_value=98
compound="CCCS(=O)(=O)Nc1ccc(F)c(C(=O)c2c[nH]c3ncc(-c4ccc(Cl)cc4)cc23)c1F + COC1C(OC(N)=O)C(O)C(Oc2ccc3c(O)c(NC(=O)c4ccc(O)c(CC=C(C)C)c4)c(=O)oc3c2C)OC1(C)C" property_label="viability, T/C" recorded_value=110
compound="COc1cc(C2c3cc4c(cc3C(OC3OC5COC(C)OC5C(O)C3O)C3COC(=O)C23)OCO4)cc(OC)c1O (stereo unspecified) + Nc1ccc(C#CCN(C(=O)Cc2ncc(C(F)(F)F)cc2C(F)(F)F)c2ccc(F)cc2)nn1" property_label="viability, T/C" recorded_value=86.9
compound="O=C(c1cc(Cc2n[nH]c(=O)c3ccccc23)ccc1F)N1CCN(C(=O)C2CC2)CC1 + Nc1ccc(C#CCN(C(=O)Cc2ncc(C(F)(F)F)cc2C(F)(F)F)c2ccc(F)cc2)nn1" property_label="viability, T/C" recorded_value=106
compound="CC1COCCN1c1cc(-c2ccnn2C)c2ccnc(-c3ccn[nH]3)c2n1 (stereo unspecified) + Nc1ccc(C#CCN(C(=O)Cc2ncc(C(F)(F)F)cc2C(F)(F)F)c2ccc(F)cc2)nn1" property_label="viability, T/C" recorded_value=59.6
compound="CC(C)n1c(=O)n(C)c2cnc3cc(F)c(-c4ccc(OCCCN5CCCCC5)nc4)cc3c21 + Nc1ccc(C#CCN(C(=O)Cc2ncc(C(F)(F)F)cc2C(F)(F)F)c2ccc(F)cc2)nn1" property_label="viability, T/C" recorded_value=110

Query :: Report viability, T/C for CNCc1ccc(-c2[nH]c3cc(F)cc4c3c2CCNC4=O)cc1 + Nc1ccc(C#CCN(C(=O)Cc2ncc(C(F)(F)F)cc2C(F)(F)F)c2ccc(F)cc2)nn1 please.
Result :: 102

Query :: Report viability, T/C for Nc1ccn(C2OC(CO)C(O)C2(F)F)c(=O)n1 (stereo unspecified) + COC1C(OC(N)=O)C(O)C(Oc2ccc3c(O)c(NC(=O)c4ccc(O)c(CC=C(C)C)c4)c(=O)oc3c2C)OC1(C)C please.
Result :: 75.7

Query :: Report viability, T/C for CC1COCCN1c1cc(C2(O)CC3CCC(C2)O3)c2cnn(-c3ccn[nH]3)c2n1 (stereo unspecified) + Nc1ccc(C#CCN(C(=O)Cc2ncc(C(F)(F)F)cc2C(F)(F)F)c2ccc(F)cc2)nn1 please.
Result :: 44.7

Query :: Report viability, T/C for CC1COCCN1c1cc(C2(S(C)(=N)=O)CC2)nc(-c2ccnc3[nH]ccc23)n1 (stereo unspecified) + Cc1cccc(N(C)C(=O)C2C(O)CCN2c2nc(C)cc(C(F)(F)F)c2C#N)c1 please.
Result :: 92.8

Query :: Report viability, T/C for O=C(c1cc(Cc2n[nH]c(=O)c3ccccc23)ccc1F)N1CCN(C(=O)C2CC2)CC1 + COC1C(OC(N)=O)C(O)C(Oc2ccc3c(O)c(NC(=O)c4ccc(O)c(CC=C(C)C)c4)c(=O)oc3c2C)OC1(C)C please.
Result :: 110

* * *

Documented viability, T/C across a set of compounds
Test system: 192522-019-R-J2-PDC complex tumor spheroid viability
Assay: Anticancer human tumor 192522-019-R-J2-PDC cell line growth inhibition [POLQ];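 further: spheroids exposed to drugs for seven days before reading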;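 on viability, T/C: 100% = DMSO vehicle control viability in luminescence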
Conditions: second compound 0.1 µM; first compound 0.00316 µM; stronger effect = lower value
Your answer is read as %, so omit the unit and give the number.

Known results for compounds:
compound="C=CCn1c(=O)c2cnc(Nc3ccc(N4CCN(C)CC4)cc3)nc2n1-c1cccc(C(C)(C)O)n1 + Nc1ccc(C#CCN(C(=O)Cc2ncc(C(F)(F)F)cc2C(F)(F)F)c2ccc(F)cc2)nn1" unit_text=% recorded_value=107
compound="Cn1ncnc1[C@H]1c2n[nH]c(=O)c3cc(F)cc(c23)N[C@@H]1c1ccc(F)cc1 + COC1C(OC(N)=O)C(O)C(Oc2ccc3c(O)c(NC(=O)c4ccc(O)c(CC=C(C)C)c4)c(=O)oc3c2C)OC1(C)C" unit_text=% recorded_value=103
compound="COc1cccc(OCCCN)c1-c1cc(Nc2cnc(C#N)cn2)n[nH]1 + Cc1cccc(N(C)C(=O)C2C(O)CCN2c2nc(C)cc(C(F)(F)F)c2C#N)c1" unit_text=% recorded_value=107
compound="C=CCn1c(=O)c2cnc(Nc3ccc(N4CCN(C)CC4)cc3)nc2n1-c1cccc(C(C)(C)O)n1 + Cc1cccc(N(C)C(=O)C2C(O)CCN2c2nc(C)cc(C(F)(F)F)c2C#N)c1" unit_text=% recorded_value=99.7
compound="CC[C@@]1(O)C(=O)OCc2c1cc1n(c2=O)Cc2cc3c(CN(C)C)c(O)ccc3nc2-1 + Nc1ccc(C#CCN(C(=O)Cc2ncc(C(F)(F)F)cc2C(F)(F)F)c2ccc(F)cc2)nn1" unit_text=% recorded_value=103

Moving on to the next compound.
Query :: Report viability, T/C for CC[C@@]1(O)C(=O)OCc2c1cc1n(c2=O)Cc2cc3c(CN(C)C)c(O)ccc3nc2-1 + COC1C(OC(N)=O)C(O)C(Oc2ccc3c(O)c(NC(=O)c4ccc(O)c(CC=C(C)C)c4)c(=O)oc3c2C)OC1(C)C please.
Result :: 102

* * *

Test system: 192522-019-R-J2-PDC complex tumor spheroid viability
Assay: Anticancer human tumor 192522-019-R-J2-PDC cell line growth inhibition [POLQ];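 further: spheroids exposed to drugs for seven days before reading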
Settings: curve of compound
property.label: IC50

Query :: Report IC50 for CCCS(=O)(=O)Nc1ccc(F)c(C(=O)c2c[nH]c3ncc(-c4ccc(Cl)cc4)cc23)c1F please.
Result :: > 10 µM

Query :: Report IC50 for CCc1cc2c(N3CCc4c(cc(Cn5ccnc5)cc4-c4cn(C)nc4C(F)(F)F)C3=O)ccnc2c(OC)n1 please.
Result :: > 10 µM

Query :: Report IC50 for COc1cc(C2c3cc4c(cc3C(OC3OC5COC(C)OC5C(O)C3O)C3COC(=O)C23)OCO4)cc(OC)c1O (stereo not drawn) please.
Result :: > 10 µM

Query :: Report IC50 for COc1cc2cc(C(=O)CCC(=O)O)sc2cc1OC please.
Result :: > 10 µM

Query :: Report IC50 for C#Cc1c(F)ccc2cc(O)cc(-c3ncc4c(N5CC6CCC(C5)N6)nc(OCC56CCCN5CC(F)C6)nc4c3F)c12 (stereo not drawn) please.
Result :: > 10 µM

* * *

System: 192522-019-R-J2-PDC complex tumor spheroid viability
Test: Anticancer human tumor 192522-019-R-J2-PDC cell line growth inhibition [POLQ];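 further: spheroids exposed to drugs for seven days before reading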
Details: curve of first compound; second compound 3.16 µM
Procedure: Multicellular complex tumor spheroid response to Polymerase (POL) inhibitors (novobiocin, ART-558, RP6685) in combination with a variety of drugs and investigational agents in selected tumor cell lines The POL inhibitors (novobiocin, ART-558, and RP6685) were evaluated both individually and in combination with standard of care and investigational anticancer small molecules within a complex spheroid model of solid tumors. . […]
Documented IC50 across a set of molecules

Known results for molecules:
molecule="COc1cccc2c1C(=O)c1c(O)c3c(c(O)c1C2=O)CC(O)(C(=O)CO)CC3OC1CC(N)C(O)C(C)O1 (stereo not given) + Cc1cccc(N(C)C(=O)C2C(O)CCN2c2nc(C)cc(C(F)(F)F)c2C#N)c1" recorded_value="> 10 µM"
molecule="CC1COCCN1c1cc(C2(S(C)(=N)=O)CC2)nc(-c2ccnc3[nH]ccc23)n1 (stereo not given) + Nc1ccc(C#CCN(C(=O)Cc2ncc(C(F)(F)F)cc2C(F)(F)F)c2ccc(F)cc2)nn1" recorded_value="6.4 µM"
molecule="O=C(Nc1ccc(O)c(NS(=O)(=O)c2ccc(F)cc2)c1)c1ccc(-c2ccccc2)cc1 + Nc1ccc(C#CCN(C(=O)Cc2ncc(C(F)(F)F)cc2C(F)(F)F)c2ccc(F)cc2)nn1" recorded_value="> 10 µM"
molecule="CCc1cc2c(N3CCc4c(cc(Cn5ccnc5)cc4-c4cn(C)nc4C(F)(F)F)C3=O)cc(C)nc2c(OC)n1 + Nc1ccc(C#CCN(C(=O)Cc2ncc(C(F)(F)F)cc2C(F)(F)F)c2ccc(F)cc2)nn1" recorded_value="> 10 µM"

Moving on to the next molecule.
Query :: Report IC50 for O=C(c1cc(Cc2n[nH]c(=O)c3ccccc23)ccc1F)N1CCN(C(=O)C2CC2)CC1 + Nc1ccc(C#CCN(C(=O)Cc2ncc(C(F)(F)F)cc2C(F)(F)F)c2ccc(F)cc2)nn1 please.
Result :: > 10 µM
